Exercise: for every item that follows, state its recorded growth.
# Tested on: RXF 393 renal
# protocol: NCI-60 one-dose screen, 48 h (100 = growth as untreated, 0 = no growth, -100 = all killed)
# condition-description: 10 µM unless noted
Compounds without any hit were thinned out: in the full panel of roughly 83,000, 20% have a hit. Calls of active or inactive are those of the source. The calls were made as follows: active = growth percent below 10; inactive = the rest.

>  <compound>
O=C1CC(c2ccccc2)Cc2nc3ccc(Cl)cc3cc21 (configuration not stated)

>  <target-under-test>
RXF 393 renal

>  <endpoint-result>
21.8% (inactive)

$$$$
>  <compound>
C=C(C)[C@@H]1CC[C@]2(C(=O)O)CC[C@]3(C)[C@H](CC[C@@H]4[C@@]5(C)C/C(=C/c6ccco6)C(=O)C(C)(C)[C@@H]5CC[C@]43C)[C@@H]12

>  <target-under-test>
RXF 393 renal

>  <endpoint-result>
-98.2% [100 µM] (active)

$$$$
>  <compound>
O=C(Nc1cccc2ccccc12)c1cc2ccccc2cc1O

>  <target-under-test>
RXF 393 renal

>  <endpoint-result>
22.7% (inactive)

$$$$
>  <compound>
O=c1[nH]c2cc(Cl)c(Cl)cc2n2cc3ncccc3c12

>  <target-under-test>
RXF 393 renal

>  <endpoint-result>
112% (inactive)

$$$$

Hi there! I need growth for each item below, if you can.
1. Cn1cc(-c2noc(-c3cn(C)c4ncc(F)cc34)n2)c2cc(Br)ccc21
2. N#C/C(C(=O)c1ccccc1)=C1/C(=O)Nc2ccc(Br)cc21
3. Cc1cc[n+](CCCCCCCCCC[n+]2ccc(C)cc2)cc1

1: 90.9% (inactive); 2: 111% (inactive); 3: 127% (inactive)

----------
# Tested on: U251 CNS
# protocol: NCI-60 one-dose screen, 48 h
# condition-description: 10 µM unless noted
The panel holds about 83,000 compounds, 20% with a hit somewhere; the sample as a whole holds those more often. Calls of active or inactive are those of the source. Rule for the calls: active = growth percent below 10; inactive = the rest.
Hi there, use one of these labels in your reply, thanks! 1.0 = active, 0.0 = inactive

Test call for this compound, please: Cc1ccc2c(c1)C(C)Cc1c(Cl)ncnc1N2C (configuration not stated) 0.0

----------
# Tested on: ACHN renal
# protocol: NCI-60 one-dose screen, 48 h (100 = growth as untreated, 0 = no growth, -100 = all killed)
# condition-description: 10 µM unless noted
This is part of a sample that, as a whole, favours compounds with a hit. Of some 83,000 tested, about 20% had one in any assay. Active and inactive are the calls of the source. How the source made its calls: active means growth percent below 10; inactive means the rest.
observable: growth

>  <chemical-structure>
CC(C)CCNCC(C)(C)O

>  <observable>
growth

>  <endpoint-result>
107% (inactive)

$$$$

Hi there! I need growth for each item below, if you can.
1. C=C(C)[C@@H]1CC[C@]2(C(=O)OC)CC[C@]3(C)[C@H](CC[C@@H]4[C@@]5(C)CC/C(=N\OCCC(=NCCC#N)NOCCC#N)C(C)(C)[C@@H]5CC[C@]43C)[C@@H]12
2. O=C1Nc2ccccc2/C1=C/C(=O)c1ccc(N2CCCC2)cc1
3. Cn1ncc2c(Nc3ccc(O)cc3)nc(Cl)nc21
4. Cc1ccc(NC(=O)N[C@@H](Cc2cc(F)cc(F)c2)C(=O)N[C@@H]2C(=O)N3CCC[C@H]3C(=O)N3CCOC[C@H]3C(=O)N[C@@H](C)C(=O)N3C[C@H](C)C[C@H]3C(=O)O[C@H]2C)cc1
5. C[n+]1c(-c2ccccc2)c2cc(N)ccc2c2ccccc21

["13.9% [100 µM] (inactive)", "30.7% (inactive)", "88% (inactive)", "29.7% (inactive)", "95.7% (inactive)"]

Which value of growth has been reported for CCOc1cc(NC(=O)c2ccccc2)c(OCC)cc1N in the records? 118% (inactive)
